# target system: ALK (Homo sapiens)
# Sequence (Q9UM73 19-1620): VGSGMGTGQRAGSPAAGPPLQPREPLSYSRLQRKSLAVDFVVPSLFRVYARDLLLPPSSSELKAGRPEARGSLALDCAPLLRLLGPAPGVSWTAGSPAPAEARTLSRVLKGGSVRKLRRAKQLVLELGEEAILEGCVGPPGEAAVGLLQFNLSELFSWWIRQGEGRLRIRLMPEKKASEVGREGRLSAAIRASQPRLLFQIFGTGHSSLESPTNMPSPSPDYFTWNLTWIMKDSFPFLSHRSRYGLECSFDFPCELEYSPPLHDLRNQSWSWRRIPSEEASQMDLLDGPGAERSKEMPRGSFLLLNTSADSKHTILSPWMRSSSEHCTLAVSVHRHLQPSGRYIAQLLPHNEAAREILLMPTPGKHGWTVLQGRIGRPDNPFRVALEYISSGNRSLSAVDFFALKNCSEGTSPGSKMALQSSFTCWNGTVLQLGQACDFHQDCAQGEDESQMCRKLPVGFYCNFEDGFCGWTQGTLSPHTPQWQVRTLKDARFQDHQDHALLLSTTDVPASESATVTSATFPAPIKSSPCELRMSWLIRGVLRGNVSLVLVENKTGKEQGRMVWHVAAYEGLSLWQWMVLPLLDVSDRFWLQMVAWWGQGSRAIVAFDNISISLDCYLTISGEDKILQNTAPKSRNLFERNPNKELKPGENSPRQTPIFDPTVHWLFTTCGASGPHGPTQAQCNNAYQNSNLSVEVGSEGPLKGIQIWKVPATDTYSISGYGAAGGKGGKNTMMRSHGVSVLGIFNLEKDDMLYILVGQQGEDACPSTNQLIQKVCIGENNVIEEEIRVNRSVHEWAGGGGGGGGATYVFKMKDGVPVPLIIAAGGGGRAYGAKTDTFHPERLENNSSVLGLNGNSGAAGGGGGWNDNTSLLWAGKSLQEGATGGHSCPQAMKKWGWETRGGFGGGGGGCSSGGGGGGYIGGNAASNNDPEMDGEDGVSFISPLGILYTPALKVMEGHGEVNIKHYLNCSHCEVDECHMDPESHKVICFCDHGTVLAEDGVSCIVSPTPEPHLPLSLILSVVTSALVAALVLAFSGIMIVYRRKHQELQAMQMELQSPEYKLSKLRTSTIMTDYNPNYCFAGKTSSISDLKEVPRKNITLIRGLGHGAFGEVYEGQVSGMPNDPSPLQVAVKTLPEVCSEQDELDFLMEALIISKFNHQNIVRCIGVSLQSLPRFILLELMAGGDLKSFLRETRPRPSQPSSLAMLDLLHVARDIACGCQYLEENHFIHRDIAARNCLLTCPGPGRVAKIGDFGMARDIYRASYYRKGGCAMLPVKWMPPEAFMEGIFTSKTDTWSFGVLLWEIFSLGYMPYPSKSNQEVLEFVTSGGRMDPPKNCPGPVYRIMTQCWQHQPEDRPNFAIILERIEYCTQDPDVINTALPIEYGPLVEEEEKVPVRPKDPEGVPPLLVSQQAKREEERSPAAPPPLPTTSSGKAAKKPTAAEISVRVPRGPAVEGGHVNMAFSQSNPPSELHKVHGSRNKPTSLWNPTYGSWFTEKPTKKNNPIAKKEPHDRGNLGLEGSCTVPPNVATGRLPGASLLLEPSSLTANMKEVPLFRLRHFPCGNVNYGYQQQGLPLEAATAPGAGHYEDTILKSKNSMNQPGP
# test name: Inhibition of a panel of kinases (Millipore): ALK
# Assay type: biochemical
# assay context: Millipore kinase panel; read-out: Enzyme inhibition (IC50, nM) ALK
measurement type: IC50 (nM)

1. CN1CCN(c2ccc(C(=O)Nc3n[nH]c4ncc(Sc5cc(F)cc(F)c5)cc34)c(NC3CCOCC3)c2)CC1
2. CN1CCN(c2ccc(C(=O)Nc3n[nH]c4ncc(Cc5cc(F)cc(F)c5)cc34)c(NC3CCOCC3)c2)CC1
Problem: Please state the entry with greater IC50 among 1 and 2 . Refer to your chosen entry by its label in the reply.
Solution: 2
(2: 15 nM, 1: 7 nM)

----------
# target system: Abl (Homo sapiens, UniProt P00519)
# Construct: purchased Millipore
# Sequence (P00519 whole entry, species assumed): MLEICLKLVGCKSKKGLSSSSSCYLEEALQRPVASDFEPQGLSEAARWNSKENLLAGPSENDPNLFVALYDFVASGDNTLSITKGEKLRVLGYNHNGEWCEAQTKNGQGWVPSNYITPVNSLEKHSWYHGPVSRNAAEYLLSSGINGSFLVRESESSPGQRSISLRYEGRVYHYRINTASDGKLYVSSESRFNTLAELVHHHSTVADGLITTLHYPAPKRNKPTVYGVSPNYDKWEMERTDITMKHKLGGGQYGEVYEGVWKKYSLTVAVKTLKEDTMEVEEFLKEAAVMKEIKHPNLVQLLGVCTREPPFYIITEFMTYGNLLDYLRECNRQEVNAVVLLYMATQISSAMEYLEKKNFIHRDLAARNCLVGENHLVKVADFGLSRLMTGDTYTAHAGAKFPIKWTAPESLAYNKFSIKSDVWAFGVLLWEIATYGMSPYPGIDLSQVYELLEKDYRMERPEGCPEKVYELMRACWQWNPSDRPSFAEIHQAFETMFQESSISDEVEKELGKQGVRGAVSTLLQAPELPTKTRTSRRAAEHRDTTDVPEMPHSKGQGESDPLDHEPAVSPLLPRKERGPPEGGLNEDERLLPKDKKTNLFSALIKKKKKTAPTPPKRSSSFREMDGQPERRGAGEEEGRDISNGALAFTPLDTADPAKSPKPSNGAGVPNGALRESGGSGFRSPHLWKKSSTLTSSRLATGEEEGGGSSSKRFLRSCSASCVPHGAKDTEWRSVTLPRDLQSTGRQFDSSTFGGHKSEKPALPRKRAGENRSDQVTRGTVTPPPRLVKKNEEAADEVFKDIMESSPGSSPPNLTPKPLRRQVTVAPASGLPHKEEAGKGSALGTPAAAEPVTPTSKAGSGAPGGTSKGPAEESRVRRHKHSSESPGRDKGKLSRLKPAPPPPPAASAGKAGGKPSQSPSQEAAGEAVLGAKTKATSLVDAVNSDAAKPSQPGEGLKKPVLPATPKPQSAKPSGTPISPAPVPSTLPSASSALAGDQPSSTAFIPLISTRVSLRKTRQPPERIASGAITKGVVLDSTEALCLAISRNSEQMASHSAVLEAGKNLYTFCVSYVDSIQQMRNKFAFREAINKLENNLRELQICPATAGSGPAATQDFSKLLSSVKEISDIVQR
# test name: Inhibition of a panel of kinases (Millipore): Abl
# Assay type: biochemical
# assay context: Millipore kinase panel; read-out: Enzyme inhibition (IC50, nM) Abl
measurement type: IC50 (nM)

a. CN1CCN(c2ccc(C(=O)Nc3n[nH]c4ncc(Sc5cc(F)cc(F)c5)cc34)c(NC3CCOCC3)c2)CC1 [Example 30]
b. CN1CCN(c2ccc(C(=O)Nc3n[nH]c4ncc(Cc5cc(F)cc(F)c5)cc34)c(NC3CCOCC3)c2)CC1 [Example 30-9]
Problem: Returns: the label, a or b , whose recorded IC50 is the lower number. Label of pick, please.
Solution: a
(a: 18 nM, b: 38 nM)
